Molecular target: T1, cynomolgus monkey IL-4Rα (cynomolgus monkey, UniProt P24394 26-231 (human entry), limits assumed)
T1 construct: also called Cyno IL-4Rα; cyIL-4Rα
T1 chain: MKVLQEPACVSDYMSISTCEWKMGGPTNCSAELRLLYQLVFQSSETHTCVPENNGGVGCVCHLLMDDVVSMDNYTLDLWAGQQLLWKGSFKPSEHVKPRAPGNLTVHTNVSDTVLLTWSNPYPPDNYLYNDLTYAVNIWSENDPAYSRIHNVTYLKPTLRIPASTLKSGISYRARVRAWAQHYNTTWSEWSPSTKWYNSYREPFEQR
Assay: SPR, Carterra LSA;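 also: antibodies captured on an anti-human Fc sensor chip, antigen injected at several concentrations, association and dissociation rates fitted with a 1:1 Langmuir model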
test_readout: Kd (nM)
# output: bare number, implied unit nM

Construct 43 (mAb482) (antibody, IgG4, V domains shown, VH/VL only) VH: EVQLVESGGGLEQPGGSLRLSCAGSGFTFRDFAMTWVRQAPGKGLEWVSSISGGGGNTYYADSVKGRFTISRDNSKNTLYLQMNSLRAEDTAVYYCAKDRLSIAVRPRYYGLDVWGQGTTVTVSS VL: DIVMTQSPLSLPVTPGEPASISCTSSQSLLYSIGYNYVDWYLQKSGQSPQLLIYLGSKRASGVPDRFSGSGSGTDFTLKISRVEAEDVGFYYCMQSLTSPYTFGQGTKLEIK	150

What Kd value was documented for this binder, Construct 42 (mAb481) (antibody, IgG4, V domains shown, VH/VL only) VH: EVQLVESGGGLEQPGGSLRLSCAGSGFTFRTYAMTWVRQAPGKGLEWVSSISGDGSNTYYADSVKGRFTISRDNSKNTLYLQMNSLRAEDTAVYYCAKDRVSITIRPRYYGLDVWGQGTTVTVSS VL: DIVMTQSPLSLPVTPGEPASISCTASQSLLYSIGYNYVDWYLQKSGQSPQLLIYLGNKRASGVPDRFSGSGSGTDFTLKISRVEAEDVGFYYCMQALTTPYTFGQGTKLEIK ?
158

Same question for Construct 18 (mAb426) (antibody, IgG4, V domains shown, VH/VL only) VH: EVQLVESGGGLEQPGGSLRLSCAGSGFTFRDFAMTWVRQAPGKGLEWVSSISGSGDNTYYADSVKGRFTISRDNSKNTLYLQMNSLRAEDTAVYYCAKDRLSKTIRPRYYGLDVWGQGTTVTVSS VL: DIVMTQSPLSLPVTPGEPASISCTSSQSLLYSIGKNYVDWYLQKSGQSPQLLIYLGNKRASGVPDRFSGSGSGTDFTLKISRVEAEDVGFYYCMQSLTSPYTFGQGTKLEIK please.
58
